Measured values drawn from PubChem BioAssay (Tox21) for this set.

- system.under.test: Cytochrome P450 1A2 (Homo sapiens) (UniProt P05177)
- Sequence (P05177 whole entry, looked up): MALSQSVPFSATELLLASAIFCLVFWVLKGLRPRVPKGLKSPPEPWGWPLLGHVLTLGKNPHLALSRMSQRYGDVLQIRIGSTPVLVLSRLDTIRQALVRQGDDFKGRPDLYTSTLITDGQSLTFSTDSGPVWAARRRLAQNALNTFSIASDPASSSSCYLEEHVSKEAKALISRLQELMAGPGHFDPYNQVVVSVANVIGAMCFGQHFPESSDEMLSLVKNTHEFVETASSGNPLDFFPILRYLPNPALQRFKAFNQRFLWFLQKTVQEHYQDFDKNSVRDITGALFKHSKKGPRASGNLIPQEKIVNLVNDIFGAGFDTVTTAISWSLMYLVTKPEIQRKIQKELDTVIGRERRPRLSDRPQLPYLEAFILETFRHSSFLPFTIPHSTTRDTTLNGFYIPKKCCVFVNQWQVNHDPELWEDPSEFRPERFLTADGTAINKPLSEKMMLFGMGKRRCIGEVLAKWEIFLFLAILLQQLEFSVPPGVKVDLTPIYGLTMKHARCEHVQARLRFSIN
- assay.notes: Cytochrome P450 Family 1 Subfamily A Member 2 (CYP1A2) small molecule antagonists: luciferase reporter qHTS assay (AID 1671199); note: nearly all actives have a fitted effect of over 50% in size
- particulars: P450-Glo CYP1A2 enzyme, luciferin luminescence, 1 h; series mostly up to 53 µM
Records with an inconclusive call do not appear. The source made the active and inactive calls. Calls come from the whole dose curve; as a rule, active = well fitted inhibition curve with a large enough effect in the repeat runs; inconclusive = weak or mixed curves; inactive = no such curve, though single readings can be large or run the other way.
Classes used: t (active), f (inactive)

compound=CCn1nc(C)c2c1C(=O)NCC(c1ccc(O)cc1)=N2 system_under_test="Cytochrome P450 1A2 (Homo sapiens) (UniProt P05177)" group=t
compound=CO[C@@]12[C@H](COC(N)=O)C3=C(C(=O)C(C)=C(N)C3=O)N1C[C@@H]1N[C@@H]12 system_under_test="Cytochrome P450 1A2 (Homo sapiens) (UniProt P05177)" group=t
compound=CCC(=O)OC/C=C/c1ccccc1 system_under_test="Cytochrome P450 1A2 (Homo sapiens) (UniProt P05177)" group=t
compound=CCCCCCCCCCCCCCC[C@H](O)[C@@H](N)CO system_under_test="Cytochrome P450 1A2 (Homo sapiens) (UniProt P05177)" group=f
compound=OC(CCCN1CCCCC1)(c1ccccc1)c1ccccc1 system_under_test="Cytochrome P450 1A2 (Homo sapiens) (UniProt P05177)" group=f
compound=CN1Cc2cc(C(=O)N3CCC(C4CCNCC4)CC3)ccc2N[C@@H](CC(=O)O)C1=O system_under_test="Cytochrome P450 1A2 (Homo sapiens) (UniProt P05177)" group=f
compound=CC(C)CCCCCCOC(=O)CCCCC(=O)OCCCCCCC(C)C system_under_test="Cytochrome P450 1A2 (Homo sapiens) (UniProt P05177)" group=t
compound=O=C(c1ccc(O)cc1)c1ccc(Cl)cc1 system_under_test="Cytochrome P450 1A2 (Homo sapiens) (UniProt P05177)" group=t
compound=NC(=O)Nc1ccc(Cl)c(Cl)c1 system_under_test="Cytochrome P450 1A2 (Homo sapiens) (UniProt P05177)" group=t
compound="O=c1[nH]c2ccc(S(=O)CCN3CCC(Cc4ccc(F)cc4)CC3)cc2o1 (stereo unspecified)" system_under_test="Cytochrome P450 1A2 (Homo sapiens) (UniProt P05177)" group=f
compound=CCCCCC=CCC=CCCCCCCCC(=O)OCC system_under_test="Cytochrome P450 1A2 (Homo sapiens) (UniProt P05177)" group=t
compound=COC(=O)c1cc(Cl)ccc1NS(=O)(=O)C(F)(F)F system_under_test="Cytochrome P450 1A2 (Homo sapiens) (UniProt P05177)" group=t
compound=Cc1ccc(Nc2nccc(N(C)c3ccc4c(C)n(C)nc4c3)n2)cc1S(N)(=O)=O system_under_test="Cytochrome P450 1A2 (Homo sapiens) (UniProt P05177)" group=f
compound="COCCOC(=O)C1=C(C)NC(C)=C(C(=O)OC/C=C/c2ccccc2)C1c1cccc([N+](=O)[O-])c1 (stereo unspecified)" system_under_test="Cytochrome P450 1A2 (Homo sapiens) (UniProt P05177)" group=t
compound=CC(C)CCCC(=O)O system_under_test="Cytochrome P450 1A2 (Homo sapiens) (UniProt P05177)" group=f
compound=C[N+](C)(C)CCOC(N)=O system_under_test="Cytochrome P450 1A2 (Homo sapiens) (UniProt P05177)" group=f
compound=O=C(Nc1ccccc1)Nc1ccccc1 system_under_test="Cytochrome P450 1A2 (Homo sapiens) (UniProt P05177)" group=t
compound=CC(C)CCCCCOC(=O)CCCCC(=O)OCCCCCC(C)C system_under_test="Cytochrome P450 1A2 (Homo sapiens) (UniProt P05177)" group=f
compound=CC1=C(C=O)C(C)(C)CCC1 system_under_test="Cytochrome P450 1A2 (Homo sapiens) (UniProt P05177)" group=f
compound=OCCSc1ccccc1 system_under_test="Cytochrome P450 1A2 (Homo sapiens) (UniProt P05177)" group=t
compound=CNC(=S)NC system_under_test="Cytochrome P450 1A2 (Homo sapiens) (UniProt P05177)" group=t
compound=O=C(C(=O)c1ccccc1)c1ccccc1 system_under_test="Cytochrome P450 1A2 (Homo sapiens) (UniProt P05177)" group=t
compound=c1ccc(COCc2ccccc2)cc1 system_under_test="Cytochrome P450 1A2 (Homo sapiens) (UniProt P05177)" group=f
compound=CC(C)(O)c1ccccc1CC[C@@H](SCC1(CC(=O)O)CC1)c1cccc(/C=C/c2ccc3ccc(Cl)cc3n2)c1 system_under_test="Cytochrome P450 1A2 (Homo sapiens) (UniProt P05177)" group=f
compound=O=C(CCCCCCC(=O)Nc1ccccc1)NO system_under_test="Cytochrome P450 1A2 (Homo sapiens) (UniProt P05177)" group=t
compound="CC(C)OCC1CO1 (stereo unspecified)" system_under_test="Cytochrome P450 1A2 (Homo sapiens) (UniProt P05177)" group=f
